- System: T. cruzi epimastigotes (Tulahuen CL98 strain)
- assay_overview: Antitrypanosomal activity assay
- Type: cell-based, Trypanosoma cruzi
- condition_parameters: ratio of IC50 for fibroblast cells/ IC50 for parasites
property_name: Selectivity index (Cytotoxicity/ Activity)

compound="O=C1C(Cl)=C(N2C(=O)COCC2=O)C(=O)c2ccccc21 [IMDNQ4]" result_number=7.43
compound="O=C1C(Cl)=C(N2C(=O)CCC2=O)C(=O)c2ccccc21 [IMDNQ1]" result_number=60.25
compound="O=C1C(Cl)=C(N(C(=O)CCl)C(=O)CCl)C(=O)c2ccccc21 [IMDNQ11]" result_number=3.20
compound="CCCC(=O)N(C(=O)CCC)C1=C(Cl)C(=O)c2ccccc2C1=O [IMDNQ3]" result_number=31.83
compound="O=C1C(Cl)=C(N2C(=O)c3ccccc3C2=O)C(=O)c2ccccc21 [IMDNQ2]" result_number=53.97
